Please provide measured IC50 for the entries that follow.
test system: pAKT (S473) in T47D cells (PI3Kα H1047R mutation); assay: HTRF pAKT (S473) in T47D cells; assay type: cell-based; details: timepoint 1 hour

Any idea what its IC50 is? The molecule is Cc1c([C@H](NC(=O)Nc2cnc(N3CC(C(C)(C)O)C3)nc2)C(F)(F)F)oc2c(F)cc(F)cc12
> 5000 nM

Quick one: IC50 for Cc1c([C@@H](NC(=O)Nc2cnc(N3CC(C(N)=O)C3)nc2)C(F)(F)F)oc2c(F)cc(F)cc12 ?
< 1000 nM

Quick one: IC50 for Cc1c([C@@H](NC(=O)Nc2cnc(NC[C@@H](C)O)nc2)C(C)C)oc2ccc(F)cc12 ?
< 1000 nM

Using the record for Cc1c([C@@H](NC(=O)Nc2cnc(N3CC[C@H](O)C3)nc2)C(F)(F)F)oc2c(F)cc(F)cc12 , report its IC50.
< 1000 nM

Item under review: Cc1c([C@@H](NC(=O)Nc2cnc(N3CC[C@@H](O)C3)nc2)C(F)(F)F)oc2c(F)cc(F)cc12 . Reported IC50?
< 1000 nM

Item under review: Cc1c(C(NC(=O)Nc2ccc(N)nc2)C(F)(F)F)oc2c(F)cc(F)cc12 (stereo not shown) [Compound 181] . Reported IC50?
> 5000 nM

Form field: reported IC50 of Cc1c([C@@H](NC(=O)Nc2cnc(N3CC(C(C)(C)O)C3)nc2)C(F)(F)F)oc2c(F)cc(F)cc12
< 1000 nM

# credit: patent US20240300939A1
